Recorded values, source paper PMC7647782.

Molecular target: DrPLA2-IB (Camelus dromedarius, UniProt A0A5N4C9D4)
Sequence (A0A5N4C9D4 23-145): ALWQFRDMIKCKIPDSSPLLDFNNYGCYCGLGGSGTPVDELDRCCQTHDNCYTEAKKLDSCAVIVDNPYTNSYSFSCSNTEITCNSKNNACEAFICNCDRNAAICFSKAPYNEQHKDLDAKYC
Experiment: Phospholipase activity inhibition, dromedary PLA2-IB
Format: biochemical
pIC50: −log10 of the molar value.

>  <smiles input>
CC1(C)CC[C@]2(C(=O)O)CC[C@]3(C)C(=CC[C@@H]4[C@@]5(C)CC[C@H](O)C(C)(C)[C@@H]5CC[C@]43C)[C@@H]2C1

>  <pIC50>
3.76

$$$$
